// reported log10(IC50) per item
Target: human CCR6 (Homo sapiens)
Construct: expressed in transfected cells; host or cells: HEK-293
Sequence (P51684 whole entry): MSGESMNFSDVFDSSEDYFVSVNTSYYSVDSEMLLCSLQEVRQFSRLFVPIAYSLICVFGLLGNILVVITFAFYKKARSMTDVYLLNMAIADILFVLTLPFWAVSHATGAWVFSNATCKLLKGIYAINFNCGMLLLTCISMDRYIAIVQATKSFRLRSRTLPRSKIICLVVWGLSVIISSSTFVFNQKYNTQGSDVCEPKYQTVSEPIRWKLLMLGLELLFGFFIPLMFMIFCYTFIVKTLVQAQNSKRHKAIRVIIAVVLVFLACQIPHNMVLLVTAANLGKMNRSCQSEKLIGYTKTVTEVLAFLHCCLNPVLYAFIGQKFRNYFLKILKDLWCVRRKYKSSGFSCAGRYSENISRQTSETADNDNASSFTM
Test: FLIPR assay (inhibition of CCL20-induced calcium signal)
Format: cell-based
Conditions: HEK-293 cells expressing human CCR6; mean values where determined several times; read-out: FLIPR IC50
Friendly reminder: values = log10 of IC50, unit nM.

input: Request body: readout log10(IC50), system human CCR6 (Homo sapiens), query C=C(C)c1ccc([C@](O)(c2cncc(-c3noc(C(C)(C)O)n3)c2)C2(C)CN(C)C2)cc1 [Example 575] . Return the value.
output: 2.01

input: Request body: readout log10(IC50), system human CCR6 (Homo sapiens), query COC1(c2noc(-c3cncc([C@@](O)(c4ccc(C(C)C)cc4)C4(C)CN(C)C4)c3)n2)CCC1 [Example 101] . Return the value.
output: 1.62

Next:
input: Request body: readout log10(IC50), system human CCR6 (Homo sapiens), query COc1cccc(C(C)(O)C#Cc2cncc([C@@](O)(c3ccc(C(C)C)cc3)C3(C)CN(C)C3)c2)n1 (stereo partly drawn) [Example 37] . Return the value.
output: 1.32

input: Request body: readout log10(IC50), system human CCR6 (Homo sapiens), query CC(C)c1ccc([C@](O)(c2cncc(C#CC(O)c3ccccc3)c2)C2(C)CN(C)C2)cc1 (stereo partly drawn) [Example 24] . Return the value.
output: 0.81

input: Request body: readout log10(IC50), system human CCR6 (Homo sapiens), query CC(=O)N1CCC(c2nc(-c3cncc([C@@](O)(c4ccc(C5(C(F)(F)F)CC5)cc4)C4(C)CN(C)C4)c3)no2)CC1 [Example 553] . Return the value.
output: 1.79
